- System: U2OS
- Experiment Notes: Incucyte cell viability with U2OS; note: filed as whole numbers so only -1 and 0 and 1 occur
- Format: toxicity, cell-based
- Test Context: human, 18 h, 10 µM, compound concentration 10 uM, replicate number 1, timepoint 18 hours

{"columns": ["Compound", "Growth Rate"],
 "data": [
  ["CN(C(=O)Cc1ccc(Cl)c(Cl)c1)C(CN1CCCC1)c1cccc(OCC(=O)O)c1.Cl (stereo not given)", 0],
  ["CS(=O)(=O)c1cc(C2(NC(=O)c3cncc4c3cnn4-c3ccc(F)cc3)CC2)ccn1", 0],
  ["N#Cc1c(N)nc(SCC(N)=O)c(C#N)c1-c1ccc(OCC2CC2)cc1", 1],
  ["NS(=O)(=O)c1cc(NC(=O)C2(c3ccccc3Cl)CC2)ccc1Oc1cccc(Cl)c1", 0],
  ["Cl.Cl.NC1(c2ccc(-c3nc4ccn5c(=O)[nH]nc5c4cc3-c3ccccc3)cc2)CCC1", 1]
]}

Values compiled from ChEMBL document CHEMBL4689842.
